Subject Of Test: T1, Hla
T1 chain: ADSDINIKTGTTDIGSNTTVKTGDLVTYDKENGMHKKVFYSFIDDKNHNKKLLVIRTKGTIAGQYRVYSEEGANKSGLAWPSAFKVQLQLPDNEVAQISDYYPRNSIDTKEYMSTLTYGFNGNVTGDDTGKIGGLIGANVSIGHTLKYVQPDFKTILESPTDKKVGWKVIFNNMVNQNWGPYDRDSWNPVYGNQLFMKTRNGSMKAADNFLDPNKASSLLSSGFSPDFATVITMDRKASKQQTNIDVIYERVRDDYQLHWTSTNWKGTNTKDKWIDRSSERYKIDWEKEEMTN
Known pKd of a selection of binders
# pKd is unitless: minus log10 of the molar concentration; print number only

1) AB-28-3 (antibody, V domains shown) VH: QVQLQESGPGLVKPSETLSLTCAVSGYSISSGMGWGWIRQPPGKGLEWIGSVDQRGSTYYNPSLKSRVTISVDTSKNQFSLKLSSVTAADTAVYYCARDAGHGADMDVWGKGTTVTVSS VL: DIQMTQSPSSVSASVGDRVTITCRASQGISRWLAWYQQKPGKAPKLLIYAASSLQSGVPSRFSGSGSGTDFTLTISSLQPEDFATYYCQQGYVFPLTFGGGTKVEIK	10.43

# evaluate next
Lab note: measured pKd of AB-28-5 (antibody, V domains shown) VH: QVQLQESGPGLVKPSETLSLTCAVSGYSISSGMGWGWIRQPPGKGLEWIGRVDQRGSTYYNPSLKSRVTISVDTSKNQFSLKLSSVTAADTAVYYCARDAGHGVDMDVWGKGTTVTVSS VL: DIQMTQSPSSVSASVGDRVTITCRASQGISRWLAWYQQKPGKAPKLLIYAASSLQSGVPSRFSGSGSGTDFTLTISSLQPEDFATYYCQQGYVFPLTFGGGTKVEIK was 10.52
